Parameter: Log P. Scope: all listed entries.
- testName: logP by HPLC on reversed-phase column (C18), EEC Directive 79/831 Annex V.A8
- Type: physicochemical
- conditionContext: pH 2.7

{"cpdSmiles": "CCCn1c(=O)c2c(c(=O)n1CCC)SC(C#N)=C(C#N)S2", "Log P": 2.80}
{"cpdSmiles": "CCCn1c(=O)c2c(c(=O)n1CC)SC(C#N)=C(C#N)S2", "Log P": 2.46}
{"cpdSmiles": "CCn1c(=O)c2c(c(=O)n1C)SC(C#N)=C(C#N)S2", "Log P": 1.72}
{"cpdSmiles": "Cn1c(=O)c2c(c(=O)n1C)Sc1c(c(=O)n(C)n(C)c1=O)S2", "Log P": 0.74}
{"cpdSmiles": "N#CC1=C(C#N)Sc2c(c(=O)n3n(c2=O)CCC3)S1", "Log P": 1.20}
{"cpdSmiles": "Cn1c(=O)c2c(c(=O)n1C)SC(C#N)=C(C#N)S2", "Log P": 1.39}
{"cpdSmiles": "CCCn1c(=O)c2c(c(=O)n1C)SC(C#N)=C(C#N)S2", "Log P": 2.08}
{"cpdSmiles": "CCn1c(=O)c2c(c(=O)n1CC)SC(C#N)=C(C#N)S2", "Log P": 2.05}
{"cpdSmiles": "N#CC1=C(C#N)Sc2c(c(=O)n3n(c2=O)CCOCC3)S1", "Log P": 1.51}
